experiment: Induction of nitric oxide release in phosphate buffer at 10^-4 M at pH 7.4 after 5 hrs by Griess colorimetric method in presence of N-acetylcysteine; type: physicochemical; details: pH 7.4, 5 h, 100 µM
Recorded metric: Activity (mol/mol)
Record the value in mol/mol, omitting the unit from your answer.

Request: Tell me the measured Activity of CCn1c(SCC(=O)Nc2ccc(/C(C)=N/O)cc2)nnc1-c1ccc(OC)c(OC)c1 , please.
Response: 0.36

Request: Tell me the measured Activity of C=CCn1c(SCC(=O)Nc2ccc(/C(C)=N/O)cc2)nnc1-c1ccc(OC)c(OC)c1 , please.
Response: 0.27

Request: Tell me the measured Activity of COc1ccc(-c2nnc(SCC(=O)Nc3ccc(/C(C)=N/O)cc3)n2-c2ccccc2)cc1OC , please.
Response: 0.35

Request: Tell me the measured Activity of C=CCn1c(SCC(=O)Nc2ccc(/C(C)=N/O)cc2)nnc1-c1ccc(OC)cc1 , please.
Response: 0.23

Request: Tell me the measured Activity of CCn1c(SCC(=O)Nc2ccc(/C(C)=N/O)cc2)nnc1-c1ccc(OC)cc1 , please.
Response: 0.24

Continuing:
Request: Tell me the measured Activity of COc1ccc(-c2nnc(SCC(=O)Nc3ccc(/C(C)=N/O)cc3)n2-c2ccccc2)cc1 , please.
Response: 0.24

Request: Tell me the measured Activity of COc1cc(-c2nnc(SCC(=O)Nc3ccc(/C(C)=N/O)cc3)n2-c2ccccc2)cc(OC)c1OC , please.
Response: 0.15
